- Target Desc: T1, human TL1A (Fitzgerald, Prod. #30R-AT070) (human, UniProt O95150 72-251, limits assumed, biotinylated with EZ-Link Sulfo-NHS-LC-Biotin where used as soluble antigen)
- T1 construct: also called TNFSF15; biotinylated human TL1A
- T1 sequence (looked up): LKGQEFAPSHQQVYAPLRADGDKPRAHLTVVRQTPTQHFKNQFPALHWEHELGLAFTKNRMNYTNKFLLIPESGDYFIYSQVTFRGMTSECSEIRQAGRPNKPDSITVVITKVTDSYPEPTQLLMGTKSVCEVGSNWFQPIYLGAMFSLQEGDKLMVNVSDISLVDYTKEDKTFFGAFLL
- Experimental Details: capture lift screen and Fab ELISA on coated TL1A
Assay Endpoint: binding result

clone 27 Fab (12835 framework variant) (Fab, V domains shown, Fab) VH: QVQLVQSGAEVKKPGASVKVSCKASGFDIQDTYMHWVRQAPGQGLEWMGRIDPASGHTKYDPKFQVRVTMTTDTSTSTVYMELSSLRSEDTAVYYCSRSGGLPDVWGQGTTVTVSS VL: EIVLTQSPGTLSLSPGERATLSCRASSSVSYMYWYQQKPGQAPRPLIYATSNLASGVPDRFSGSGSGTDYTLTISRLEPEDFAVYYCQQWSGNPRTFGGGTKLEIK    binds
clone 10-1 Fab (12835 framework variant) (Fab, V domains shown, Fab) VH: QVQLVQSGAEVKKPGASVKLSCKASGFDIQDTYMHWVRQAPGQGLEWMGRIDPASGHTKYDPKFQVRVTMTRDTSTSTVYMELSSLRSEDTAVYYCSRSGGLPDVWGQGTTVTVSS VL: EIVLTQSPGTLSLSPGERATLSCRASSSVSYMYWYQQKPGQAPRLLIYATSNLASGVPDRFSGSGSGTDYTLTISRLEPEDFAVYYCQQWSGNPRTFGGGTKLEIK    binds

Origin of values: patent US20240368263A1
